Cited source: PubChem BioAssay (NCI)

Tested on: RXF-631 renal
assay: NCI tumour cell line growth inhibition, 48 h
quantity: TGI

Worked examples follow.
{"compound": "COc1cc2c(Cc3cc(OCc4ccccc4)ccc3N)nccc2c(OC)c1OC", "quantity": "TGI", "experimental-value": "> 10 µM"}
{"compound": "[O-][n+]1c2cc(CN3CCOCC3)c(CN3CCOCC3)cc2[n+]([O-])c2c(O)cccc21", "quantity": "TGI", "experimental-value": "> 55.9 µM"}
{"compound": "CC1CC(=O)c2c(ccc3c2C(=O)c2cccc(O)c2C3=O)C1 (stereo not drawn)", "quantity": "TGI", "experimental-value": "29.8 µM"}

Given the entry CC(C)c1cccc(C(C)C)c1NC(=O)C(=O)C1SC(=S)NC1=O (stereo not drawn) , report its measured TGI. > 100 µM

Another compound to look at: COC1(Cc2ccccc2)C(=O)c2ccccc2N1C(C)=O (stereo not drawn) > 100 µM

// repeat for c1ccc2c(CN3CCC(C4CCN(Cc5cccc6ccccc56)CC4)CC3)cccc2c1 and report 35.5 µM

And the next one, Cc1cccc(N=C2NC(=O)C(CC(=O)Nc3ccccc3Cl)S2)c1 (stereo not drawn) ? > 100 µM

Queued: O=C(NC1C=Nc2ccccc2NC1=O)c1ccccc1Cl (stereo not drawn) > 100 µM

----------
Test system: OVCAR-8 ovarian
assay: NCI tumour cell line growth inhibition, 48 h
Here, each record is paired with measured TGI data.

Here is how some molecules turned out for TGI.
{"molecule": "O=C(Cn1c2ccccc2c2ccncc21)N/N=C\\c1ccc2ccccc2c1", "TGI": "> 100 µM"}
{"molecule": "COC1C(O)C(C)OC(O[C@@H]2C[C@H]3CC[C@@H]4[C@H](CC[C@]5(C)[C@@H](C6=CC(=O)OC6)CC[C@]45O)[C@@]3(C)[C@H](O)C2)C1O (some centres undefined)", "TGI": "0.268 µM"}
{"molecule": "Cc1ccc([N+](=O)[O-])c2c(NCCC[N+](C)(C)[O-])ccnc12", "TGI": "> 100 µM"}
{"molecule": "CC(=O)/C(=C(/Br)I)c1ccccc1", "TGI": "28.1 µM"}
{"molecule": "C=CCC1C2CCC(O[Si](C(C)C)(C(C)C)C(C)C)(C(C(=O)OC)C2)C1O (centres undefined)", "TGI": "> 100 µM"}

Continue with the molecule presented below.
Find the recorded TGI belonging to CC(C)=CCc1cc(C2COc3cc4c(c(O)c3C2=O)C=CC(C)(C)O4)c(O)cc1O (centres undefined) and report it. 51.2 µM

----------
Tested on: SNB-75 CNS
assay: NCI tumour cell line growth inhibition, 48 h; in the data active = GI50 below about 0.43 µM; inactive = the rest
Please reply with one of these outcomes: active, inactive

{"structure-smiles-string": "CCc1c2c(nc3ccc(OCc4ccc(B5OC(C)(C)C(C)(C)O5)cc4)cc13)-c1cc3c(c(=O)n1C2)COC(=O)[C@]3(O)CC", "answer-label": "active"}
{"structure-smiles-string": "CCC(=O)c1c(C(F)(F)F)n([O-])c2ccccc2[n+]1=O", "answer-label": "inactive"}
{"structure-smiles-string": "C=C1C(=O)O[C@H]2[C@H]1CC/C(CNC(=O)/C=C/c1ccc(Cl)cc1Cl)=C\\CC[C@@]1(C)O[C@@H]21", "answer-label": "inactive"}

Recorded test outcome, item Cc1ccc(S(=O)(=O)Nc2cc(Sc3ccccc3)c(O)c3ccccc23)cc1 inactive

Moving on to the next molecule: COc1cc2c(cc1OCCCCCn1c3ccccc3c3ccccc31)N=C[C@@H]1CCCN1C2=O inactive

Also Cc1ccc(-c2c3c(N)c4c(nc3nc3c2c(C)nn3-c2ccccc2)CCC4)cc1 , if possible. inactive

// next record O=C(Cn1c2ccccc2c2ccncc21)N/N=C\c1ccc2ccccc2c1 inactive

Consider next the molecule Cc1cc(Cl)ccc1Nc1nc(C(F)(F)F)ccc1C(=O)Nc1cccc(C(F)(F)F)c1 in the same way. inactive

Try this molecule too: COc1ccc2c(c1OC)C(=O)O[C@@H]2[C@H]1c2c(c(Br)c3c(c2OC)OCO3)CCN1C inactive
